Each recorded value in this set is attributed to the supplement of paper PMC9170038.

Quick reference: apparent KD of K4 kissing-loop reporter of the listed items.
# Tested on: K4 kissing-loop RNA reporter
# Assay protocol: apparent KD of K4 kissing-loop reporter; higher = weaker reporter binding
# Experimental parameters: Eterna round: R107; input ligand: theophylline 20 uM
Unit nM implied. Number only.

Recorded apparent KD of K4 kissing-loop reporter, per entry:
GCUGCCAUGGCAGGAUAUAUAAAUGCUGAGUGAUGUUCUGCAUCAUAUGUCCCUGACCGCGGCGGUGUAGAAGGGCCAUGGCAGC    97.1
UCUGGAGUAUAUGAUACCAGCAGUGAGAGACAGGAAGUAUAGUGAUGUUAUAUGAGAGAAUGCCCUUGGCAGCGUGUGCGGUGGC [SSTheophylB.Q]    81.4

Could you now look at the following sequence, please?
Provide value of apparent KD of K4 kissing-loop reporter for this record tested with K4 kissing-loop RNA reporter: AGAAAAGGGACGAUCGUCGAGUUGCCAGAAGGAGCGGUAAUUUUACCAGGUAGGUCGCUGGCCCAGUGAUGUUGGGCUUUUAAGA [Biisinaor]
133

====

# Test system: MS2 coat protein
# Assay protocol: apparent KD of MS2 coat protein; higher = weaker reporter binding
# Experimental parameters: Eterna round: R107; input ligand: theophylline 20 uM
Parameter: apparent KD of MS2 coat protein (nM)
Unit nM implied. Number only.

Recorded apparent KD of MS2 coat protein, per entry:
CGUAUUGGAAACAGUACGAGUGAUCCGGUCCGAGGACCGGUACGGCCGCCACUCGAAAUUAAUAAACAUGAGGAUCACCCAUGUA [Ex Tryptophan A 10]    19.6
AUACAUGAGGAUCACCCAUGUAUGGAUGAAGGAGCGACCAGAGGGUCAGGUAGGUCGCAUCACAUGAGGAUCACCCAUGUAGAAA [DOUBLE!!! :-D #11]    25.2

Endpoint output: apparent KD of MS2 coat protein of ACGUCAACCCUUAUGUUGAUGCAAGACGAUACCAGCCUGGAUACAGGCCCUUGGCAGCGUCAACAUGAGGAUCACCCAUGUAAUA [(T)''-(MT)'-(Theo)-(Ms2)] . Value?
261

====

# System: MS2 coat protein
# Assay protocol: apparent KD of MS2 coat protein; higher = weaker reporter binding
# Experimental parameters: Eterna round: R107; input ligand: arginine 13.2 mM
Parameter: apparent KD of MS2 coat protein (nM)
Unit nM implied. Number only.

GGCGCUGCGUCGGCCGCCACUAGUGGGUAAUGGGUGUACAUGAGGAUCACCCAUGUAUUUUGGCCUAGGACCGGGACGUGGCGCC [Oxen]    81.9
GGACUAACCUGAAGGAGCGGCGCGCAGAAACUGCAAAUUCCUCCACACGAGGAUCACCCGUGUCAGGUAGGUCGCAGGUUAGUCG [ArgBX 28]    11.5

Endpoint output: apparent KD of MS2 coat protein of AGAAAGAAACAAAACUCAAGGAGAACCGAAGGAGCGGCGAAAGAGCCAGGUAGGUCGCGGUCCUCAACAUGAGGAUCACCCAUGU . Value?
61.6

Endpoint output: apparent KD of MS2 coat protein of UAAUGCAGGUCGGCCGCCACUACACACAUGAGGAUCACCCAUGUAGUUACUGGGUGAAGUGGCAGUAGGACCGGGACCUGCAUAA [Brourd01] . Value?
185

Endpoint output: apparent KD of MS2 coat protein of GGAGCUACGUCGGCCGCCACUAGCGGAUAUUACGUGUACAUGAGGAUCACCCAUGUAAUACGGUUUAGGACCGGGACGUAGCUCC [Lizard] . Value?
15.6

Endpoint output: apparent KD of MS2 coat protein of UUGGGUUUGUGAAGGAGCGGGAAAGUUAUAUAGUUAAUCCUAACAUGAGGAUCACCCAUGUCCCAGGUAGGUCGCGCGGGUUUGG [12.P] . Value?
32.7

Endpoint output: apparent KD of MS2 coat protein of GUUAUAACAAAAGUUGUAACAGUGGGUGAACGAGGACCGGUACGGCCGCCACUCGGACAUGAGGAUCACCCAUGUCCAUGUGAAA [AstrosExyTryA#15] . Value?
14.1

====

# System: MS2 coat protein
# Assay protocol: apparent KD of MS2 coat protein; higher = weaker reporter binding
# Experimental parameters: Eterna round: R107; input ligand: theophylline 2 mM
Parameter: apparent KD of MS2 coat protein (nM)
Unit nM implied. Number only.

Recorded apparent KD of MS2 coat protein, per entry:
ACAUGAGGAUCACCCAUGUAGAAAGAUCCUCGAGGACCGGUACGGCCGCCACUCGAGUGGCAGUGUGUGCAGAAAAUGCGCGCGC    81.4
UCAGUGCAAGGAAGGAGCGGGUACAUGAGGAUCACCCAUGUGCAAGUGGUGAGCGUUUGUGCCCAGGUAGGUCGCCUAGCCUGGU [XArg-B18]    179
GGAUAGGACAGAAGGAGCGUGAGAUGCAAAGCUUCAUUCCUCACAUGAGGAUCACCCAUGUCACAGGUAGGUCGCUGUCCUAUCG [#19 Exclusion - Arginine B]    111
AAUAACAUGAGGAUCACCCAUGUAAGUAAACGAGGACCGGUACGGCCGCCACUCGAAUAAAUAAAGUACCGGUAAGAUCCAUAGA [Default title]    22.5
CACAUGAGGAUCACCCAUGUCUGAACUGAAGGAGCGCUAAACAAGGCAGGUAGGUCGCGGAAUCCCGUGUGCAUAUGCACACGGG [9.Z]    20.4

Could you now look at the following sequence, please?
Endpoint output: apparent KD of MS2 coat protein of AUGUCCUAAACGGCCGCCACUUACAUGAGGAUCACCCAUGUUUACCGAUAUGGUUGUUGCUUUCCAAGGACCGGGUUUAAUCUGC [theeternabot_exclusion_MS2_Trp_B_49] . Value?
12.7

====

# Tested on: MS2 coat protein
# Assay protocol: apparent KD of MS2 coat protein; higher = weaker reporter binding
# Experimental parameters: Eterna round: R107; input ligand: arginine 13.2 mM
Parameter: apparent KD of MS2 coat protein
# number then unit; no other words

Recorded apparent KD of MS2 coat protein, per entry:
CAUAUAUAUAGAAGGAGCGACAUGAGGAUCACCCAUGUCUACCACGUCGAAAGACGCUCAUGUCAGGUAGGUCGCUAUAUAUAUG [Astros-Eli-mod2]    56.2 nM
UGUACAGACAUCGAAUUCCUAUGUGCUGAAGGAGCGUCGUUGACGACAGGUAGGUCGCAGUUAACAUGAGGAUCACCCAUGUACA [Arg A Ex t5]    45.8 nM
GGCCAUGGAAACAUGGCGGCGGCGUAUGCGCGAGGACCGGUACGGCCGCCACUCGGGCGACAUGAGGAUCACCCAUGUUCCUCAU [ETA NP+V+V2 #25]    127 nM
AAAUGAGGAUCACCCAUGUAACAACGGGAAGGAGCGCCAAACAAGGCAGGUAGGUCGCCCACAUGAGGAUCACCCAUGUGUUGGG [Exclusion Arginine A GF 28]    89 nM
GAUGAACUAUAUGAUACCAGACAACAUGAGGAUCACCCAUGUGAUUGUCGUCCUCUGCCUGUCCCUUGGCAGCGUAUAGUUUAUC [XTheo B #16]    38.4 nM
GUAUAUUAUAGAAGGAGCGUCGAAAAUGGGUAAACAUGAGGAUCACCCAUGUAAAGGGAACGACAGGUAGGUCGCUAUAAUAUAC [AstromonsSSArgB#14]    154 nM
AUGUCAUUGGUGUAGCUGUGAAGUGGCGAUACCAGCGUGGAAACACGCCCUUGGCAGCGCCAAAACAUGAGGAUCACCCAUGUUA [#23 Exclusion-TheophyllineA]    19 nM
CAAAAUAUAACGGCCGCCACUUACUCAUGAGGUAACAACAUGAGGAUCACCCAUGUUUGAGGAUCAAGGACCGGGUUAUAUUUUG [AstrosSSTry#21]    24.7 nM
UGUUUUUAUCGAAGGAGCGCCGCAUGAGGAUCACCCAUGCACAUGAGGAUCACCCAUGUCUGGCAGGUAGGUCGCGAUCAAUGGG [Same State Arginine B GF 11]    33.7 nM

Could you now look at the following sequence, please?
Endpoint output: apparent KD of MS2 coat protein of UGUAUGUGAUGUGAUACCAGUCCAAUACUGGUAACAUGAGGAUCACCCAUGUAAUGAUGGGACCCUUGGCAGCACAUCGCAUACU [ThBS] . Value?
175 nM

====

# Tested on: K4 kissing-loop RNA reporter;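 further: bound reporter read as fluorescence of individual clusters on recovered sequencing chips by microscopy, with normalized cluster intensities fitted with a binding model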
# Assay protocol: apparent KD of K4 kissing-loop reporter; higher = weaker reporter binding
# Experimental parameters: Eterna round: R107; input ligand: arginine 13.2 mM
The label depends only on apparent KD of K4 kissing-loop reporter: 1.0 if it is at least 0.2 µM, 0.0 if it is smaller.

GACAAUUCCGCUUCCGAGCAUACUUGACUGAAGGAUAUCAUCGUGUUGAGAAGGUCAGUAACAGAGAGUGAUGUUCUUUGAGGUC [theeternabot_sameState_KL_FMN_A_19]    0.0
AGGAUCCGUCGACAAAAGUCGACAUAAGCCAAGGAUAUGACGAAAGUCAGAAGGUGGUCAUAAGACCAGUGAUGUUGGUGGAUCC [FmnA 13 #SwitchBubble #K4Late]    1.0
GCAGUGAUGUUGCUGAUGUACAGUGGGAUACGAGGACCGGUACGGCCGCCACUCGUACAGAACUUGUUAAUACAUCGAUAGGUGA [XIII]    1.0
UUAGUCUAGAGAGGAUAUCAGUGAUGUUGAUAUCAAGAUCUGAGAUAGAAUUCUAUCUCAGAUCAAUGAGAAGGCUCUAGACAUU [AK1.2 Exc FMN B]    0.0
UUUAACGAGUGAUGUUCGUAAAGUAAUAGUUAGGAUAUCGUUUUUUCGAGAAGGAACUUCGAAGUGAUACGAAAGUAUCGCUUCG [FMN A 8]    0.0

Determine whether this sequence has apparent KD of K4 kissing-loop reporter no lower than 0.2 µM: GAGGUACAGGCGGCCGCCACUAGUGAUGUUAGUGAUGUUAGAUAAAGUAUAUAUCGGCGUGUAGAUAGGACCGGGCCUGAUGGAG [ssrykmullin]
0.0

Determine whether this sequence has apparent KD of K4 kissing-loop reporter no lower than 0.2 µM: AUUUUUUACAGAAGGAGCGUGUUAUAAUAAUCAUAUUGCUUAGCGAGUGAUGUUCGCUUUACACAGGUAGGUCGCUGUUUAUUUA [JR_Nu_ExcArginiB_Sub029]
0.0

Determine whether this sequence has apparent KD of K4 kissing-loop reporter no lower than 0.2 µM: CCAGGAUGAUGAGGAUGAUAAAUUACUGAAGGAGCGCAUAUAGUUGCAGGUAGGUCGCGGUGAAUAAGUAUAGUGAUGUUAUACC [SSArgA.Aa]
1.0

Determine whether this sequence has apparent KD of K4 kissing-loop reporter no lower than 0.2 µM: AUGUUGAGCGGAAGGAGCGGCUGAACCAGUGAUGUUGGUUAAUCCAAGUGAUGUUGGAAAAGCCAGGUAGGUCGCCGCUUUAUGU [Same State Arg B GF 2]
1.0

Determine whether this sequence has apparent KD of K4 kissing-loop reporter no lower than 0.2 µM: GGUAGCAUGGCGGCCGCCACUCUAUGCGAGUGAUGUUCGCAGCUCAAAGAGCACCCGGGAACAGAGAGGACCGGGCCAUGCUACC
1.0

Determine whether this sequence has apparent KD of K4 kissing-loop reporter no lower than 0.2 µM: GUCUUACUAUAGGAUACCAGCAUGCAAGGAGUGAUGUUCCCGUCAUAUGAGGAGUACCGCUGCCCUUGGCAGCCUCUUGUAAGUU [theeternabot_sameState_KL_Theo_B_1]
1.0
